biological target: Type-1 angiotensin II receptor B (Rattus norvegicus) (UniProt P29089); experiment: In vivo pressor response to Ang II (AT1) receptor in pithed rats at an oral dose of 10 mg/kg; Not active; format: functional, organism-based; parameters: dose 10 mg/kg
Sequence (P29089 whole entry): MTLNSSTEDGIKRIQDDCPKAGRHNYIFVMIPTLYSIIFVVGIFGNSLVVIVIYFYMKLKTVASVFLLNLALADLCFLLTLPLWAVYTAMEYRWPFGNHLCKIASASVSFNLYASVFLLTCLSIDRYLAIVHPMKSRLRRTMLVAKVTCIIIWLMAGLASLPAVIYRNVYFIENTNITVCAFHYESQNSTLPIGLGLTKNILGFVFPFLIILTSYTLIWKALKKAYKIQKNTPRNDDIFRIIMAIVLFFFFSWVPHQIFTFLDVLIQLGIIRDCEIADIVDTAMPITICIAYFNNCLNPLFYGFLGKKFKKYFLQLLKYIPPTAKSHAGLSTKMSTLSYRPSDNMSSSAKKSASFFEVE
Calls of active or inactive are those of the source. The rule behind the calls is not given here.
measurement.name: Kb

smiles_input=CCCCCC[C@H](C(=O)N1C[C@@H](Oc2ccc(C(=O)O)cc2)C[C@H]1C(=O)O)n1cnc(NC(=O)c2ccccc2S(=O)(=O)O)c1 reported_result=inactive
smiles_input=CCCCCC[C@H](C(=O)N1C[C@@H](Oc2ccc(CC3N=NN=N3)cc2)C[C@H]1C(=O)O)n1cnc(NC(=O)c2ccccc2S(=O)(=O)O)c1 reported_result=inactive
smiles_input=CCCCCC[C@H](C(=O)N1C[C@@H](Oc2ccc(CCC(=O)O)cc2)C[C@H]1C(=O)O)n1cnc(NC(=O)c2ccccc2S(=O)(=O)O)c1 reported_result=inactive
smiles_input=CCCCCC[C@H](C(=O)N1C[C@@H](Oc2ccccc2CC(=O)O)C[C@H]1C(=O)O)n1cnc(NC(=O)c2ccccc2S(=O)(=O)O)c1 reported_result=inactive
